molecular target: MRP2 (Rattus norvegicus, UniProt Q63120); assay: Ussing chamber bidirectional transport, model validation for MRP2 (pravastatin substrate, MK571 inhibitor); assay type: in vitro ADME; design: intestinal segments including duodenum, jejunum, ileum, and colon from anesthetized rats were immediately removed by surgery; from tissue; host or cells: stripped rat intestine (jejunum and ileum in validation; jejunum for the emodin studies); settings: rat, pH 6.5, with MK571 186 μM, mucosal side, rat jejunum, with MK571 186 μM on mucosal side; read-out: Papp M-S, with inhibitor
Sequence (Q63120 whole entry): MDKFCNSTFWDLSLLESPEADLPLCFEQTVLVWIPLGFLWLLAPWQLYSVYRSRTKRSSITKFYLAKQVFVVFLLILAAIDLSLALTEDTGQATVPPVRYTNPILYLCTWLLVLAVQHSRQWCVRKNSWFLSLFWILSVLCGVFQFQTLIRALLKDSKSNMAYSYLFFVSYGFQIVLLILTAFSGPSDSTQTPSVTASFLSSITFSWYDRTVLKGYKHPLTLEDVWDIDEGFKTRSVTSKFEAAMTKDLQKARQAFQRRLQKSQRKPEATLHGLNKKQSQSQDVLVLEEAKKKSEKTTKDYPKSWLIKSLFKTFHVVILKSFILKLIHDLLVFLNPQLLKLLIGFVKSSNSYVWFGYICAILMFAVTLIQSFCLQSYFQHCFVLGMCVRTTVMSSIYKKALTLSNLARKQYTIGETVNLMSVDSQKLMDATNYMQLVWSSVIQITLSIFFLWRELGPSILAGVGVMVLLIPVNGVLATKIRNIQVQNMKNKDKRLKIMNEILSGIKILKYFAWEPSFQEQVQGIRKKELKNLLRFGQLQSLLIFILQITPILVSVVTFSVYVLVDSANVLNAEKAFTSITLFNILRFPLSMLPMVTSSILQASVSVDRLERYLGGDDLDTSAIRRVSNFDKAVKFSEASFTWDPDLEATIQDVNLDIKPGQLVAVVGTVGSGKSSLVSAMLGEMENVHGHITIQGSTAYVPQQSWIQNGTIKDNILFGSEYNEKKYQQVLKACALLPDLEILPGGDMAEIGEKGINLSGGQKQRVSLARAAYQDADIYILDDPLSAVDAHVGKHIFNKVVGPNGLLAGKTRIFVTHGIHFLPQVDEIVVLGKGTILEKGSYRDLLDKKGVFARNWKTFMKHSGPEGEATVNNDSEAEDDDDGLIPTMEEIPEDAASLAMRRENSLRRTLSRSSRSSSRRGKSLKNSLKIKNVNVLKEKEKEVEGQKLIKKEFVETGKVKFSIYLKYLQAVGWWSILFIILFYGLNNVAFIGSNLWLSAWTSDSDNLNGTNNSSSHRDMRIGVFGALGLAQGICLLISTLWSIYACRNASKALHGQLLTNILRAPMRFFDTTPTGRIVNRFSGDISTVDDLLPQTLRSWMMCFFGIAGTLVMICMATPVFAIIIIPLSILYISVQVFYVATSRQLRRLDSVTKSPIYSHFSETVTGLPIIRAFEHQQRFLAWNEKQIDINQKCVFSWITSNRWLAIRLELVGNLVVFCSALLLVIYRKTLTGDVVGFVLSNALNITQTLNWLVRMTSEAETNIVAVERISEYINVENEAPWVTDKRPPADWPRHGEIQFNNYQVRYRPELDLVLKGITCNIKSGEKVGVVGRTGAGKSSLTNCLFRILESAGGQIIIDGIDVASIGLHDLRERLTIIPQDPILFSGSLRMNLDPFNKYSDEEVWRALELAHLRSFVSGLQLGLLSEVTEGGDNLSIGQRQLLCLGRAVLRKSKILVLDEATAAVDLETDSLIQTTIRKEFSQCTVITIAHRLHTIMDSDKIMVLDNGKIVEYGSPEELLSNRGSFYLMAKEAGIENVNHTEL
readout.type: Papp (×10⁻⁶ cm/s)
Expressed in ×10⁻⁶ cm/s, but write only the number.

Summary for this molecule, CC[C@H](C)C(=O)O[C@H]1C[C@H](O)C=C2C=C[C@H](C)[C@H](CC[C@@H](O)C[C@@H](O)CC(=O)O)[C@H]21 [Pravastatin] : Papp is 107
